Test system: Cerebral cortex neuron
Test: Stimulation of [3H]flunitrazepam binding to GABA type A receptor in mouse primary cortical neurons at 100 uM after 30 mins by liquid scintillation counting analysis relative to allopregnanolone
Format: cell-based
Item-by-item account of Emax
# number only, unit % dropped from output

Consider the worked cases shown below.
CC(=O)[C@H]1CC[C@H]2[C@@H]3CC[C@H]4C[C@H](O)CC[C@]4(C)[C@H]3[C@@H](N)C[C@]12C ... 140
CC(=O)[C@H]1CC[C@H]2[C@@H]3CC[C@H]4C[C@H](O)CC[C@]4(C)[C@H]3C[C@@H](N)[C@]12C ... 0

// switching to the query compound
The reported Cerebral cortex neuron Emax of "CC(=O)[C@H]1CC[C@H]2[C@@H]3CC[C@@H]4C[C@H](O)CC[C@]4(C)[C@H]3[C@@H](C)C[C@]12C" is 71
